Listing of recorded IC50 by entry.
- target: α9α10 nAChR (Rattus norvegicus, UniProt P43144+Q9JLB5)
- Sequence (P43144 26-479 limits assumed): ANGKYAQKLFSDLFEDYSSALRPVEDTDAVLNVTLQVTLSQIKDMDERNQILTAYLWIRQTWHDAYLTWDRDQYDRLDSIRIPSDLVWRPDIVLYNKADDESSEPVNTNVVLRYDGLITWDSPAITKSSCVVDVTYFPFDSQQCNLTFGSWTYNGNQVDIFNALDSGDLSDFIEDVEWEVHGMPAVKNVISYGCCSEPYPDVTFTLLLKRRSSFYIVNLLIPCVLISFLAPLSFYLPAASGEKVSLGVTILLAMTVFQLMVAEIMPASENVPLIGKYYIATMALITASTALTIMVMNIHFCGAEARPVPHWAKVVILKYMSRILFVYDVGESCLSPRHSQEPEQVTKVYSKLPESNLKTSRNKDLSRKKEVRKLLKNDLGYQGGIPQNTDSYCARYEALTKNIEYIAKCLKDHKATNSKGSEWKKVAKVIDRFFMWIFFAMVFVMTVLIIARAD
- Sequence (Q9JLB5 25-447 limits assumed): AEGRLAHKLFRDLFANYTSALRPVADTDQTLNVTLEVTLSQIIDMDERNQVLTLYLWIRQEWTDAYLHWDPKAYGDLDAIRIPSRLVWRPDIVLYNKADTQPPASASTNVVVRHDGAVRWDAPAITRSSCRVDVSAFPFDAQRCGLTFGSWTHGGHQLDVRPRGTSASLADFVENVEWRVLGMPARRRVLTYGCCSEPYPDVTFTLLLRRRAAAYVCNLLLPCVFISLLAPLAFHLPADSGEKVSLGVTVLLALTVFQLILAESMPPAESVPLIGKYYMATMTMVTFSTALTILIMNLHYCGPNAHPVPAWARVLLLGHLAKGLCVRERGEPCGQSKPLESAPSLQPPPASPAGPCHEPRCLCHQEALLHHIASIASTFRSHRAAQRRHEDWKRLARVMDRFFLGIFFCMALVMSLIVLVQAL
- experiment.summary: cell-based
Positions of bridges follow the written chain, without caps; N, C: chain ends. Residues, ends and D or L forms follow the SMILES beside them.
Write down the numeric answer in µM and omit the unit.

C[C@@H]1NC(=O)[C@@H]2CSSC[C@H](NC(=O)CN)C(=O)N[C@@H](CSSC[C@@H](C(=O)N[C@@H](CCCNC(=N)N)C(=O)O)NC(=O)[C@H](CCCNC(=N)N)NC(=O)[C@H](Cc3ccc(O)cc3)NC1=O)C(=O)N[C@@H](CO)C(=O)N[C@@H](CC(=O)O)C(=O)N1CCC[C@H]1C(=O)N[C@@H](CCCNC(=N)N)C(=O)N2 [SEQ ID NO:24] (H-GCCSDPRCAYRCR-OH; disulfide 2-8, 3-12)    13

Proceeding to the next compound to report its IC50.
In plain terms, N=C(N)NCCC[C@H](NC(=O)[C@@H]1CSSC[C@@H]2NC(=O)[C@@H](NC(=O)CN)CSSC[C@H](NC(=O)[C@H](CCCNC(=N)N)NC(=O)[C@@H]3CCCN3C(=O)[C@H](CC(=O)O)NC(=O)[C@H](CO)NC2=O)C(=O)N[C@@H](CCCNC(=N)N)C(=O)N[C@@H](Cc2c[nH]c3ccccc23)C(=O)N[C@@H](CCCNC(=N)N)C(=O)N1)C(=O)O [SEQ ID NO:16] (H-GCCSDPRCRWRCR-OH; disulfide 2-8, 3-12) has a documented IC50 of 0.011

###

- target: α9α10 nAChR (Rattus norvegicus, UniProt P43144+Q9JLB5)
- experiment.summary: cell-based
Positions of bridges follow the written chain, without caps; N, C: chain ends. Residues, ends and D or L forms follow the SMILES beside them.
property.label: pIC50
Scale explanation: pIC50 corresponds to minus log10 of a concentration expressed in moles per litre.

N=C(N)NCCC[C@H](NC(=O)[C@@H]1CSSC[C@@H]2NC(=O)[C@@H](NC(=O)CN)CSSC[C@H](NC(=O)[C@H](CCCNC(=N)N)NC(=O)[C@@H]3CCCN3C(=O)[C@H](CCC(=O)O)NC(=O)[C@H](CO)NC2=O)C(=O)N[C@@H](CCCNC(=N)N)C(=O)N[C@@H](Cc2ccc(O)cc2)C(=O)N[C@@H](CCCNC(=N)N)C(=O)N1)C(=O)O [SEQ ID NO:22] (H-GCCSEPRCRYRCR-OH; disulfide 2-8, 3-12)    5.18
N=C(N)NCCC[C@H](NC(=O)[C@@H]1CSSC[C@@H]2NC(=O)[C@@H](NC(=O)CN)CSSC[C@H](NC(=O)[C@H](CCCNC(=N)N)NC(=O)[C@@H]3CCCN3C(=O)[C@H](CC(=O)O)NC(=O)[C@H](CO)NC2=O)C(=O)N[C@@H](CCCNC(N)=O)C(=O)N[C@@H](Cc2ccc(O)cc2)C(=O)N[C@@H](CCCNC(=N)N)C(=O)N1)C(=O)O    8.62

Kindly review the next compound as well.
Kindly note the recorded pIC50 for CC(C)[C@@H]1NC(=O)[C@H](CC(=O)O)NC(=O)[C@H](CO)NC(=O)[C@@H]2CSSC[C@@H](C(=O)N[C@@H](CCCNC(=N)N)C(=O)O)NC(=O)[C@H](CCCNC(=N)N)NC(=O)[C@H](Cc3ccc(O)cc3)NC(=O)[C@H](CCCNC(=N)N)NC(=O)[C@H](CSSC[C@H](NC(=O)CN)C(=O)N2)NC(=O)[C@H](CCCNC(=N)N)NC1=O [SEQ ID NO:23] (H-GCCSDVRCRYRCR-OH; disulfide 2-8, 3-12) , which is 5.39
